Source listed as ChEMBL document CHEMBL1759910.

Target: Cannabinoid receptor 2 (Homo sapiens, UniProt P34972)
Sequence (P34972 whole entry): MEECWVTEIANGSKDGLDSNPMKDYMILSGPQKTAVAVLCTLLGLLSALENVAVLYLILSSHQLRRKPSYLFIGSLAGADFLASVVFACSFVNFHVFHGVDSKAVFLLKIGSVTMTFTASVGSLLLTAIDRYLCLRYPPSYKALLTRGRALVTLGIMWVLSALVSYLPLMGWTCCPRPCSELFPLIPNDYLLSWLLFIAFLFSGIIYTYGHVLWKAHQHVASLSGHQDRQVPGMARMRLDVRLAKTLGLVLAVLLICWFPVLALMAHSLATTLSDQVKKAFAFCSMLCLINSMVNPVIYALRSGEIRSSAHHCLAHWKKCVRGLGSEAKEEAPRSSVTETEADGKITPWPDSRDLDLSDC
Assay: Agonist activity at human CB2 receptor expressed in CHO-K1 cells assessed as inhibition of forskolin-stimulated cAMP level relative to control
Type: functional, cell-based
Here the recorded Emax is given for each entry.
Numeric only. Scale: %

Field: example entries. Status: answers known.
compound=C[C@@H](NC(=O)c1nc(N2CCC(F)(F)CC2)c2cnccn12)C(C)(C)C measurement_label=Emax quantitative_result=99
compound=O=C(N[C@H](c1ccccn1)C(F)(F)F)c1nc(N2CCOCC2)n2ccccc12 measurement_label=Emax quantitative_result=97
compound=O=C(N[C@H](c1ccccn1)C(F)(F)F)c1nc(N2CCOCC2)c2cnccn12 measurement_label=Emax quantitative_result=94
compound=O=C(NCC1(CO)CCCC1)c1nc(CN2CCC(F)(F)CC2)n2ccccc12 measurement_label=Emax quantitative_result=88
compound=O=C(c1cccc(Cl)c1Cl)c1nc(CN2CCC(F)(F)CC2)c2ccccn12 measurement_label=Emax quantitative_result=110

Exercise: Emax for `CC(C)(C)CNC(=O)c1nc(C2CC2)n2ccccc12` ?
Solution: 97

Exercise: What measured Emax goes with `O=C(Nc1cccc(C(F)(F)F)n1)c1nc(CN2CCS(=O)(=O)CC2)c2ccccn12` ?
Solution: 80

Exercise: Reported Emax, compound O=C(NC(c1cccnc1)C(F)(F)F)c1nc(N2CCOCC2)c2cnccn12 (centres undefined) : ____
Solution: 98

Exercise: What value of Emax has been reported for the following compound? `O=C(Nc1cccc(C(F)(F)F)n1)c1nc(CN2CCC(F)(F)CC2)c2ccccn12`
Solution: 98

Exercise: Look up Emax for this compound: `O=C(c1cccc(F)c1C(F)(F)F)c1nc(CN2CCOCC2)c2ccccn12`
Solution: 98

Exercise: // Emax lookup, key: O=C(NC(c1ccncc1)c1ccc(F)cc1)c1nc(N2CCC(F)(F)C2)c2cnccn12 (centres undefined)
Solution: 96

Exercise: Name the recorded Emax for `O=C(NCC1(CO)CCCC1)c1nc(N2CCOCC2)n2ccccc12` .
Solution: 99

Exercise: Sample `O=C(NC(C1CC1)C1CC1)c1nc(C2CC2)n2ccccc12` — what was its Emax?
Solution: 99

Exercise: Given `O=C(c1cccc(Cl)c1Cl)c1nc(CN2CCOCC2)c2ccccn12` , state its recorded Emax.
Solution: 94

###

Biological target: Cannabinoid receptor 1 (Homo sapiens, UniProt P21554)
Sequence (P21554 whole entry): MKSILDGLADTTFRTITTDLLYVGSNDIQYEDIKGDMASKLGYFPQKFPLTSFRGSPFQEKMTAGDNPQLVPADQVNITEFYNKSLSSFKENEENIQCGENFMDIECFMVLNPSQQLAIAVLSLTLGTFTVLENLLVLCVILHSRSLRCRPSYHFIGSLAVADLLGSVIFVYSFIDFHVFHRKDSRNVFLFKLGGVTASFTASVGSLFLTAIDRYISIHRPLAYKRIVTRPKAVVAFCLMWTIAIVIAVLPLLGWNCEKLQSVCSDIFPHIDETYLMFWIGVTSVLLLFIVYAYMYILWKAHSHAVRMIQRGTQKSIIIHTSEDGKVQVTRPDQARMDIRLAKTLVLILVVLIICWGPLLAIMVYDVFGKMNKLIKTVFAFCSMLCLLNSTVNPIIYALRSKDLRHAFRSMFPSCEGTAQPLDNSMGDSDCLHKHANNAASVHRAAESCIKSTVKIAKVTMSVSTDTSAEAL
Test: Agonist activity at human CB1 receptor expressed in CHO-K1 cells assessed as inhibition of forskolin-stimulated cAMP level
pIC50: −log10 of the molar value.
MEASUREMENT_LABEL: pIC50

compound="O=C(NC(c1ccncc1)c1ccc(F)cc1)c1nc(N2CCC(F)(F)C2)c2cnccn12 (stereo not given)" tested_on="Cannabinoid receptor 1 (Homo sapiens, UniProt P21554)" measurement_label=pIC50 result="< 4.77"
compound=O=C(c1cccc(Cl)c1Cl)c1nc(CN2CCC(F)(F)CC2)c2ccccn12 tested_on="Cannabinoid receptor 1 (Homo sapiens, UniProt P21554)" measurement_label=pIC50 result=7.05
compound=CC(C)(C)CNC(=O)c1nc(C2CC2)n2ccccc12 tested_on="Cannabinoid receptor 1 (Homo sapiens, UniProt P21554)" measurement_label=pIC50 result="< 4.77"
compound=C[C@@H](NC(=O)c1nc(N2CCC(F)(F)CC2)c2cnccn12)C(C)(C)C tested_on="Cannabinoid receptor 1 (Homo sapiens, UniProt P21554)" measurement_label=pIC50 result="< 4.77"

Here is another compound to look at.
Exercise: I would be grateful if you could share the reported pIC50 for `O=C(NCC1(CO)CCCC1)c1nc(N2CCOCC2)n2ccccc12` .
Solution: < 4.77

###

Assay: Plasma concentration in Lewis rat complete Freund's adjuvant-induced hyperalgesia model at 100 mg/kg, po and sc at 60 mins
Type: ADME, organism-based
Design: dose 100 mg/kg, route oral
MEASUREMENT_LABEL: concentration at 1 h
Write the numeric value and append its unit.

Exercise: // concentration at 1 h lookup, key: `O=C(c1cccc(Cl)c1Cl)c1nc(CN2CCOCC2)c2ccccn12`
Solution: 4.5 µM

###

Target: Cannabinoid receptor 1 (Homo sapiens, UniProt P21554)
Assay: Agonist activity at human CB1 receptor expressed in CHO-K1 cells assessed as inhibition of forskolin-stimulated cAMP level relative to control
Format: functional, cell-based
MEASUREMENT_LABEL: Emax
In your response, put the unit directly after the numeric value.

Completed entries (count: 3):
smiles=O=C(c1cccc(Cl)c1Cl)c1nc(CN2CCOCC2)c2ccccn12 measurement_label=Emax result=66%
smiles=O=C(N[C@H](c1ccccn1)C(F)(F)F)c1nc(N2CCOCC2)n2ccccc12 measurement_label=Emax result=55%
smiles=O=C(c1cccc(Cl)c1Cl)c1nc(CN2CCC(F)(F)CC2)c2ccccn12 measurement_label=Emax result=101%

Exercise: Entry `O=C(Nc1cccc(C(F)(F)F)n1)c1nc(CN2CCC(F)(F)CC2)c2ccccn12` has what Emax?
Solution: 100%

Exercise: Request the reported Emax associated with `O=C(c1cccc(F)c1C(F)(F)F)c1nc(CN2CCOCC2)c2ccccn12`
Solution: 97%

Exercise: For the molecule shown here, `O=C(NCC1(CO)CCCC1)c1nc(CN2CCC(F)(F)CC2)n2ccccc12` , give the reported Emax.
Solution: 99%

Exercise: Emax for `O=C(Nc1cccc(C(F)(F)F)n1)c1nc(CN2CCS(=O)(=O)CC2)c2ccccn12` ?
Solution: 54%

###

Assay: Plasma concentration in Lewis rat complete Freund's adjuvant-induced hyperalgesia model at 100 mg/kg, po and sc at 120 mins
Type: ADME, organism-based
Set-up: dose 100 mg/kg, route oral
MEASUREMENT_LABEL: concentration at 2 h

Exercise: Fill in the blank: the reported concentration at 2 h of `O=C(NCC1(CO)CCCC1)c1nc(N2CCOCC2)n2ccccc12` is ____.
Solution: 4.3 µM

###

Target: Cannabinoid receptor 2 (Homo sapiens)
MEASUREMENT_LABEL: Ki

Exercise: Notebook: pull reported Ki for Cannabinoid receptor 2 (Homo sapiens), entry `COc1ccc2c(c1)c(CCN1CCOCC1)c(C)n2C(=O)c1cccc(Cl)c1Cl`
Solution: 10 nM

###

Target: Cannabinoid receptor 2 (Homo sapiens, UniProt P34972)
Assay: Agonist activity at human CB2 receptor expressed in CHO-K1 cells assessed as inhibition of forskolin-stimulated cAMP level
MEASUREMENT_LABEL: pIC50
The read-out pIC50 is expressed as -log10 of concentration in moles per litre.

compound=O=C(NC(C1CC1)C1CC1)c1nc(C2CC2)n2ccccc12 tested_on="Cannabinoid receptor 2 (Homo sapiens, UniProt P34972)" quantitative_result=8.15

Exercise: Would you kindly share the measured pIC50 for `O=C(c1cccc(Cl)c1Cl)c1nc(CN2CCC(F)(F)CC2)c2ccccn12` ?
Solution: 9.52

Exercise: Any idea what its pIC50 is? The compound is `C[C@@H](NC(=O)c1nc(N2CCC(F)(F)CC2)c2cnccn12)C(C)(C)C`
Solution: 7.44

Exercise: Which value of pIC50 has been reported for `O=C(NCC1(CO)CCCC1)c1nc(CN2CCC(F)(F)CC2)n2ccccc12` in the records?
Solution: 8.52

Exercise: # pIC50 lookup, item `O=C(Nc1cccc(C(F)(F)F)n1)c1nc(CN2CCC(F)(F)CC2)c2ccccn12`
Solution: 8.77

Exercise: Data request, read-out pIC50, for `O=C(N[C@H](c1ccccn1)C(F)(F)F)c1nc(N2CCOCC2)c2cnccn12`
Solution: 6.86

Exercise: Could you share which pIC50 value was measured for `CC(C)(C)CNC(=O)c1nc(C2CC2)n2ccccc12` ?
Solution: 7.68

Exercise: Requested field: pIC50. Item: `O=C(c1cccc(Cl)c1Cl)c1nc(CN2CCOCC2)c2ccccn12`
Solution: 8.30

Exercise: Value lookup for pIC50; key = `O=C(c1cccc(F)c1C(F)(F)F)c1nc(CN2CCOCC2)c2ccccn12`
Solution: 9.15

Exercise: # pIC50 lookup, item O=C(NC(c1cccnc1)C(F)(F)F)c1nc(N2CCOCC2)c2cnccn12 (centres undefined)
Solution: 7.16

Exercise: Bench note: what pIC50 did O=C(NC(c1ccncc1)c1ccc(F)cc1)c1nc(N2CCC(F)(F)C2)c2cnccn12 (centres undefined) show?
Solution: 7.04

Exercise: I have this compound here, `O=C(NCC1(CO)CCCC1)c1nc(N2CCOCC2)n2ccccc12` , and I need its recorded pIC50.
Solution: 7.48

Exercise: What value of pIC50 has been recorded for this entry: `O=C(N[C@H](c1ccccn1)C(F)(F)F)c1nc(N2CCOCC2)n2ccccc12`
Solution: 7.68

Exercise: Please look up its pIC50: `O=C(Nc1cccc(C(F)(F)F)n1)c1nc(CN2CCS(=O)(=O)CC2)c2ccccn12`
Solution: 7.36

###

Target: Cannabinoid receptor 1 (Homo sapiens)
MEASUREMENT_LABEL: pKi
Units for pKi: none; it is -log10 of a concentration expressed in mol/L.

Exercise: What reported pKi corresponds to `COc1ccc2c(c1)c(CCN1CCOCC1)c(C)n2C(=O)c1cccc(Cl)c1Cl` on Cannabinoid receptor 1 (Homo sapiens)?
Solution: 5.70
